assay.summary: CHI Log D procedure
Format: physicochemical
assay.context: pH 7.4, CHI Log D
Listing of recorded chromatographic logD by entry.
Reply with just the number.

- compound: "CC(=O)N[C@@H](Cc1ccccc1)C(=O)N[C@@H](CC(=O)O)C(=O)N[C@@H](C)C(=O)N[C@]1(C)CCCCCCC=CCOC(=O)N2CC[C@@](C(=O)N[C@@H](Cc3ccccc3)C(=O)N[C@@H](Cc3c[nH]c4ccccc34)C(=O)N[C@@H](CCC(N)=O)C(N)=O)(C2)NC(=O)[C@H](C(C)C)NC(=O)[C@H](Cc2cccnc2)NC(=O)[C@H](C)NC(=O)[C@H](C)NC(=O)[C@H](CC(=O)O)NC(=O)[C@H](CC(=O)O)NC1=O (single isomer, unassigned)"
  readout.value: 1.15
- compound: "CC(=O)N1CCC[C@]12CC=CCCCC1(CCCC=CCCCOC(=O)N3CC[C@@](C(=O)N[C@@H](Cc4ccccc4Cl)C(=O)N[C@@H](Cc4csc5ccccc45)C(=O)N[C@@H](CCC(N)=O)C(N)=O)(C3)NC(=O)[C@H](CO)NC(=O)[C@H](Cc3cccc(C(F)(F)F)c3)NC(=O)[C@H](C)NC(=O)[C@H](C)NC(=O)[C@H](CC(=O)O)NC(=O)[C@H](CC(=O)O)NC1=O)NC(=O)[C@H](CC1CCCCC1)NC(=O)[C@H](CC(=O)O)NC2=O (stereo partly drawn)"
  readout.value: 2.51
- compound: "CC(=O)N[C@@H](Cc1ccccc1)C(=O)N[C@@H](CC(=O)O)C(=O)N[C@@H](C)C(=O)N[C@]1(C)CCCCCCC=CCOC(=O)N2CC[C@@](C(=O)N[C@@H](CCC(=O)O)C(=O)N[C@@H](Cc3c[nH]c4ccccc34)C(=O)N[C@@H](CCC(N)=O)C(N)=O)(C2)NC(=O)[C@H](C(C)C)NC(=O)[C@H](Cc2ccccc2)NC(=O)[C@H](C)NC(=O)[C@H](C)NC(=O)[C@H](CC(=O)O)NC(=O)[C@H](CC(=O)O)NC1=O (single isomer, unassigned)"
  readout.value: 0.816
- compound: "CC(=O)N1CCC[C@]12CC=CCCCC1(CCCC=CCCCOC(=O)N3CC[C@@](C(=O)N[C@@H](Cc4ccsc4)C(=O)N[C@@H](Cc4cccc5ccccc45)C(=O)N[C@@H](Cc4c[nH]cn4)C(N)=O)(C3)NC(=O)[C@H](CC(N)=O)NC(=O)[C@H](Cc3ccccc3)NC(=O)[C@H](C)NC(=O)[C@H](C)NC(=O)[C@H](CC(=O)O)NC(=O)[C@H](CC(=O)O)NC1=O)NC(=O)[C@H](CC(C)(C)C)NC(=O)[C@H](CC(=O)O)NC2=O (stereo partly drawn)"
  readout.value: 2.08
- compound: "CC(=O)N[C@@H](Cc1ccccc1)C(=O)N[C@@H](CC(=O)O)C(=O)N[C@@H](C)C(=O)N[C@]1(C)CCCCCCC=CCOC(=O)N(C)C[C@@](C)(C(=O)N[C@@H](Cc2ccccc2)C(=O)N[C@@H](Cc2c[nH]c3ccccc23)C(=O)N[C@@H](CCC(N)=O)C(N)=O)NC(=O)[C@H](C(C)C)NC(=O)[C@H](Cc2ccccc2)NC(=O)[C@H](C)NC(=O)[C@H](C)NC(=O)[C@H](CC(=O)O)NC(=O)[C@H](CC(=O)O)NC1=O"
  readout.value: 1.32

Fill in the blank: the reported chromatographic logD of CC(=O)N1CCC[C@]12CC=CCCCC1(CCCC=CCCCCCC[C@@](C)(C(=O)N[C@@H](Cc3ccccc3)C(=O)N[C@@H](Cc3csc4ccccc34)C(=O)NC(Cc3cncn3C)C(N)=O)NC(=O)[C@H](CC(N)=O)NC(=O)[C@H](Cc3ccccc3)NC(=O)[C@H](C)NC(=O)[C@H](C)NC(=O)[C@H](CCC(=O)O)NC(=O)[C@H](CC(=O)O)NC1=O)NC(=O)[C@H](C)NC(=O)[C@H](CC(=O)O)NC2=O (single isomer, unassigned) is ____. 2.1

Moving on to the next compound: CC(=O)N1CCC[C@]12CC=CCCCC1(CCCC=CCCCCCC[C@@](C)(C(=O)N[C@@H](Cc3ccccc3Cl)C(=O)N[C@@H](Cc3csc4ccccc34)C(=O)N[C@@H](CCC(N)=O)C(N)=O)NC(=O)[C@H](Cc3ccccc3)NC(=O)[C@H](Cc3ccccc3)NC(=O)[C@H](C)NC(=O)[C@H](C)NC(=O)[C@H](CN(CC(=O)O)CC(F)(F)F)NC(=O)[C@H](CC(=O)O)NC1=O)NC(=O)[C@H](CC(C)(C)C)NC(=O)[C@H](CC(=O)O)NC2=O (stereo partly drawn) 3.36

And then CC(=O)N1CCC[C@]12CC=CCCCC1(CCCC=CCCCOC(=O)N3CC[C@@](C(=O)N[C@@H](Cc4ccccc4Cl)C(=O)N[C@@H](Cc4csc5ccccc45)C(=O)N[C@@H](CCC(N)=O)C(N)=O)(C3)NC(=O)[C@H](CC(N)=O)NC(=O)[C@H](Cc3ccccc3)NC(=O)[C@H](C)NC(=O)[C@H](CCCCN)NC(=O)[C@H](CN(CC(=O)O)CC(F)(F)F)NC(=O)[C@H](CC(=O)O)NC1=O)NC(=O)[C@H](CC(C)(C)C)NC(=O)[C@H](CC(=O)O)NC2=O (stereo partly drawn) , what is it? 2.03

Do the same for CC(=O)N1CCC[C@]12CC=CCCCC1(CCCC=CCCCCCC[C@@](C)(C(=O)N[C@@H](Cc3ccccc3)C(=O)N[C@@H](Cc3c[nH]c4ccccc34)C(=O)N[C@@H](CCC(N)=O)C(N)=O)NC(=O)[C@H](C(C)C)NC(=O)[C@H](Cc3ccccc3)NC(=O)[C@H](C)NC(=O)[C@H](C)NC(=O)[C@H](Cc3cccc4ccccc34)NC(=O)[C@H](CC(=O)O)NC1=O)NC(=O)[C@H](C)NC(=O)[C@H](CC(=O)O)NC2=O (stereo partly drawn) please 3.03
